# systemUnderTest: T1, DR4G145 (HLA DQB2:01, peptide CLIP) (human)
# T1 construct: extracellular domain
# assay: MSD ECL; antigen coated; protocol of Example 3;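 also: antibody binding to plate-coated soluble HLA class II antigens carrying peptides fused at the beta-chain N-terminus, detected with a SulfoTag anti-human Kappa secondary antibody for 1 hour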
metricName: ECL signal (ECL)
Report the value in ECL with no unit label.

INSERT INTO assay_data (binder, recordedresult) VALUES
  ('DR4B6 (antibody, V domains shown, also called L243 re-engineered as IgG2sigma) VH: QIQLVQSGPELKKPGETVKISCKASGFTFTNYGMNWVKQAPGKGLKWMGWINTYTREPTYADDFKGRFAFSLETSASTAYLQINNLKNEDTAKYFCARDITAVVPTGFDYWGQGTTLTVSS VL: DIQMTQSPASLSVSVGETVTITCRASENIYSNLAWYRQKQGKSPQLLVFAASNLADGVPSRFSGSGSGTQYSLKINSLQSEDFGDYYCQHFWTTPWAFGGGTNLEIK', 473),
  ('DR4B98 (antibody, human IgG2, kappa, V domains shown, also called VH DR4H50 / VL PH9L3) VH: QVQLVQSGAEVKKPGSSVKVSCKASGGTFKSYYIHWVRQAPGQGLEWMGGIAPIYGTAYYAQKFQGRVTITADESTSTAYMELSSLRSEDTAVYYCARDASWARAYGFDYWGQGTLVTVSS VL: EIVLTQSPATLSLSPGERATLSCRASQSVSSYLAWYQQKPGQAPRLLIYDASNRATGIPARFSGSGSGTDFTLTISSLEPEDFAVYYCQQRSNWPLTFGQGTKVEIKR', 5960),
  ('DR4B5 (antibody, V domains shown, also called apolizumab (1D10) re-engineered as IgG2sigma) VH: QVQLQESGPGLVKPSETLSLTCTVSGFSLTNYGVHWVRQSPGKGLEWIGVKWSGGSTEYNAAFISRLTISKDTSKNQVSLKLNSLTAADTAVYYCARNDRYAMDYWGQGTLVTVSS VL: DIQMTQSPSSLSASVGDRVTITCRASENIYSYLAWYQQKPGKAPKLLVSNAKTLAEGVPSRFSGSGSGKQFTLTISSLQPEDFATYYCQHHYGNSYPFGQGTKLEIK', 1360),
  ('DR4B4 (antibody, V domains shown, also called Lym-1 re-engineered as IgG2sigma) VH: QVQLKESGPGLVAPSQSLSITCTISGFSLTSYGVHWVRQPPGKGLEWLVVIWSDGSTTYNSALKSRLSISKDNSKSQVFLKMNSLQTDDTAIYYCASHYGSTLAFASWGHGTLVTVSA VL: DIQMTQSPASLSASVGETVTIICRASVNIYSYLAWYQQKQGKSPQLLVYNAKILAEGVPSRFSGSGSGTQFSLKINSLQPEDFGSYYCQHHYGPFTFGSGTKLEIK', 297);

Please find the next binder below.
**Query** Please look up its ECL signal: DR4B127 (antibody, human IgG2, kappa, V domains shown, also called VH DR4H7 / VL PH9L3) VH: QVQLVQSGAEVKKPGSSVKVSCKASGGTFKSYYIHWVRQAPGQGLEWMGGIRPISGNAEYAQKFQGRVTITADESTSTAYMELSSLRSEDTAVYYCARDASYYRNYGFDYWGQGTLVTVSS VL: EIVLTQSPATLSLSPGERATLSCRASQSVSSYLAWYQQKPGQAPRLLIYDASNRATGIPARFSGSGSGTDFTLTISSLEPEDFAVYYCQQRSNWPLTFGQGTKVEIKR
**Result** 2070
